Below is a list of entries, each paired with its recorded EC50 value.
# target or test system: T1, human interleukin-2 receptor α-chain (IL-2Rα; CD25), recombinant protein (human, UniProt P01589 22-240, limits assumed)
# T1 construct: also called huIL2R-a; hIL-2RA
# T1 sequence: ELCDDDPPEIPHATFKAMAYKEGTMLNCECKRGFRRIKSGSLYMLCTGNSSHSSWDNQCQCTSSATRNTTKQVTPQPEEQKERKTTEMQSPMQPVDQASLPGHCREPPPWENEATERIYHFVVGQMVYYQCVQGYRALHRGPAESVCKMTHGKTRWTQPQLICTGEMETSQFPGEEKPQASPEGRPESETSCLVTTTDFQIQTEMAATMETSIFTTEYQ
# measurement protocol: ELISA, bivalent VHH-hFc
Enter your answer as a number in nM; do not include the unit.

Input: // query EC50 value for entry 5-MP01F05 VHH-hFc, monospecific bivalent (Fc fusion, IgG1 Fc LALA-PG; not shown: human IgG1 CH2 and CH3 domains (Fc)) EVQLVESGGGLVQAGGSLRLSCAASIRAFTTWSMAWFRQAPGKEREYVARINVSGSVTYYADFVKGRFTISRDNAKKTMYLEMNNLKPEDTALYYCAADRTGVGTNDYNYWGQGTQVTVSS
Output: 0.06

Input: // query EC50 value for entry 7-MP01G08 VHH-hFc, monospecific bivalent (Fc fusion, IgG1 Fc LALA-PG; also called 07-MP01G08; not shown: human IgG1 CH2 and CH3 domains (Fc)) EVQLVESGGGLVQAGGSLRLSCAASGRAFSMYNMGWFRQAPGKEREFVAATGWSGANTPYADSVKGRFTISRDNTQNTVYLQMNSLKPEDTATYYCAADSIRLRSDVTRIPLEYDYWGQGTQVTVSS
Output: 0.072

Input: // query EC50 value for entry 3-MP01E03 VHH-hFc, monospecific bivalent (Fc fusion, IgG1 Fc LALA-PG; not shown: human IgG1 CH2 and CH3 domains (Fc)) QVQLVESGGGLVQAGGSLRLSCTASGRTLSSYSMAWFRQAADKGREFVTAISSSGVVTHVLDSVKGRFTISRDNAKNTVYLQMNSLQPEDTALYFCAGTASSYSTYEANYNYWGQGTLVTVSS
Output: 0.057

Input: // query EC50 value for entry 92-MP05C07 VHH-hFc, monospecific bivalent (Fc fusion, IgG1 Fc LALA-PG; not shown: human IgG1 CH2 and CH3 domains (Fc)) QVQLVESGGGSVQAGGSLRLSCEASGRTLFSSYGMGWFRQAPGKEREFVGAISRFGTYTSYADPVKDRFTISRDNAKSTVYLQMNNTKPEDTAVYYCAAYTYSGSFYSTVKTHHDEYRYWGQGTQVTVSS
Output: 0.047
